Experimental system: T1, Human PD-L1 Dimer (human, UniProt Q9NZQ7 19-239)
T1 construct: also called hPD-L1 dimer; hPD-L1-hFc
T1 sequence (Q9NZQ7 19-239): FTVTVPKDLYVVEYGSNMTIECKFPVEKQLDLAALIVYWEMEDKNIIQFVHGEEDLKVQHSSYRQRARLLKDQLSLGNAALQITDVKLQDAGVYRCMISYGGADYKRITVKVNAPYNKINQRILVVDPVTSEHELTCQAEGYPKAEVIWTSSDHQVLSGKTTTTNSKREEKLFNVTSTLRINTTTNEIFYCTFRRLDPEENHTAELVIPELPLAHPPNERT
Protocol: SPR (Biacore), mAb captured, 37C
Assay readout: t1/2 (h)
# unit: h | format: bare number

# example entries with known answers
- Binder: "H2aM8314N (antibody, mouse IgG2, V domains shown, also called H2M8314N) VH: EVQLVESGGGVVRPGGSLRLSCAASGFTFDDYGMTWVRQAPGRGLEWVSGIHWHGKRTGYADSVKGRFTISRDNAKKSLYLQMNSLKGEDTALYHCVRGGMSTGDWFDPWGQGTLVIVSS VL: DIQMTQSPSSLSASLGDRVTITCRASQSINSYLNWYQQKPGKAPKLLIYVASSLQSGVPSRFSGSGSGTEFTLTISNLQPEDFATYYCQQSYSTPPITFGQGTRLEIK"
  t1/2 [h]: 8.38
- Binder: "H2aM8321N (antibody, mouse IgG2, V domains shown, also called H2M8321N) VH: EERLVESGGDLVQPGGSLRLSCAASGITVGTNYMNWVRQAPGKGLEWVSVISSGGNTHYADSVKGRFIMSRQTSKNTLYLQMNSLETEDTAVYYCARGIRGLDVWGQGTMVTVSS VL: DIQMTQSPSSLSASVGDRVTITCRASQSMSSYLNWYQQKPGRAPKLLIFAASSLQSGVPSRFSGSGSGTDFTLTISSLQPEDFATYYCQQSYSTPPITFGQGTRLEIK"
  t1/2 [h]: 0.717
- Binder: "H1H9329P (antibody, human IgG1, V domains shown) VH: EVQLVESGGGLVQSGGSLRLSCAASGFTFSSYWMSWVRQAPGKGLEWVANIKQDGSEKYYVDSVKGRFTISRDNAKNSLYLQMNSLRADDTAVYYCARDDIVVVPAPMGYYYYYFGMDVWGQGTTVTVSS VL: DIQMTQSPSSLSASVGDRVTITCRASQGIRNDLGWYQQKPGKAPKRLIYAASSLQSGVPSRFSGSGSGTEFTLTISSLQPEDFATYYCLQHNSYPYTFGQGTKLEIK"
  t1/2 [h]: 0.0717
- Binder: "H2aM8317N (antibody, mouse IgG2, V domains shown, also called H2M8317N) VH: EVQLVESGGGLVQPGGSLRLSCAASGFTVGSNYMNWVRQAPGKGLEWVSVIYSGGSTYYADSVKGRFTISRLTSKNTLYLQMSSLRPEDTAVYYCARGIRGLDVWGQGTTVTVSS VL: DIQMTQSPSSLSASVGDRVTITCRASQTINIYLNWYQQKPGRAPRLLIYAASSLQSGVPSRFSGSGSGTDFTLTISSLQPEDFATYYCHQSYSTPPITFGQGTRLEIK"
  t1/2 [h]: 0.3
- Binder: "H2aM8323N (antibody, mouse IgG2, V domains shown, also called H2M8323N) VH: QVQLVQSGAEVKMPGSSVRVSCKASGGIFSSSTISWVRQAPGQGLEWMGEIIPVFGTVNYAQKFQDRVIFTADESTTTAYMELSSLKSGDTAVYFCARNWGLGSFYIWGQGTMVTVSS VL: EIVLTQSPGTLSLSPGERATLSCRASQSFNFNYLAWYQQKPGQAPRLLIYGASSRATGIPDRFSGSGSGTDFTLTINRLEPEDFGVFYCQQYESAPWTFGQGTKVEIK"
  t1/2 [h]: 1.6

Q: What does the record list as t1/2 for H1H9336P (antibody, human IgG1, V domains shown) VH: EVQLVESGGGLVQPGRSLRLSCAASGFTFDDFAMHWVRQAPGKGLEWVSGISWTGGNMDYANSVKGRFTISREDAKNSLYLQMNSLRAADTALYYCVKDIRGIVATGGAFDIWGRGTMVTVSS VL: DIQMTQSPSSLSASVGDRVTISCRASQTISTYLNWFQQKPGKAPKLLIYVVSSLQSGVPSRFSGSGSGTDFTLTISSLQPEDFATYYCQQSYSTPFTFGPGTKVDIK ?
Ans: 2.32

Q: Given H2aM8310N (antibody, mouse IgG2, V domains shown, also called H2M8310N) VH: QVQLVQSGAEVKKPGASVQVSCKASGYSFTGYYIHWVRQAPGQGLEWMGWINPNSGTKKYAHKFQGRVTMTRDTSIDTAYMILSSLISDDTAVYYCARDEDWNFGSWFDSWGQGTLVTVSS VL: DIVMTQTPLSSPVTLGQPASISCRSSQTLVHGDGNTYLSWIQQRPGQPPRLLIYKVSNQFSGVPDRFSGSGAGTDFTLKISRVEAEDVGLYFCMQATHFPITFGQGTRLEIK , state its recorded t1/2.
Ans: 1.55
